SYSTEM_UNDER_TEST: B-Raf delta1-415 (Homo sapiens)
PROTOCOL_DESCRIPTION: B-Raf kinase inhibition (MAPH filter plate, 33P-ATP, MEK1 substrate)
MEASUREMENT_SETUP: read-out: Biochemical IC50 B-Raf
pIC50: −log10 of the molar value.
OBSERVATION_TYPE: pIC50

Examples with answers:
SMILES_CODE | pIC50
COn1c(=O)c(-c2cc(NC(=O)c3cccnc3)ccc2Cl)cc2cnc(Nc3ccccc3)nc21 | < 6.00
CCOn1c(=O)c(-c2c(Cl)cccc2Cl)cc2cnc(Nc3cc(C(=O)N(C)CCOC)n(C)c3)nc21 | > 6.30
COn1c(=O)c(-c2c(Cl)cccc2Cl)cc2cnc(Nc3cccc(O)c3)nc21 | > 6.30

Parameters: items (list). Returns: pIC50 for each item.
1. COn1c(=O)c(-c2c(F)cccc2Cl)cc2cnc(Nc3ccc(N4CCN(C)CC4)cc3)nc21
2. O=c1c(-c2c(F)cccc2Cl)cc2cnc(Nc3ccc(N4CCOCC4)cc3)nc2n1OCC1CCCC1
3. COc1ccccc1-c1cc2cnc(Nc3ccc(OCCN(C)C)cc3)nc2n(OC)c1=O
4. COn1c(=O)c(-c2c(Cl)cccc2Cl)cc2cnc(Nc3cc(CO)ccc3C)nc21
5. COCCOn1c(=O)c(-c2cc(NC(=O)c3ccccc3)ccc2Cl)cc2cnc(Nc3ccc(N4CCN(C)CC4)cc3)nc21
6. COn1c(=O)c(-c2c(Cl)cccc2Cl)cc2cnc(Nc3ccc(S(C)(=O)=O)cc3)nc21

Given back:
> 7.00
> 6.30
< 6.00
> 6.30
> 6.30
> 7.00

Parameters: items (list). Returns: pIC50 for each item.
1. COc1cccc(Nc2ncc3cc(-c4c(Cl)cccc4Cl)c(=O)n(OCCCCN)c3n2)c1
2. COn1c(=O)c(-c2c(Cl)cccc2Cl)cc2cnc(Nc3ccc(N4CCCC4=O)cc3)nc21
3. COc1cccc(Nc2ncc3cc(-c4c(Cl)cccc4Cl)c(=O)n(OC)c3n2)c1
4. O=c1c(-c2c(F)cccc2Cl)cc2cnc(Nc3ccc(N4CCOCC4)cc3)nc2n1OCC1CCC1
5. COCCN(C)C(=O)c1cc(Nc2ncc3cc(-c4c(Cl)cccc4Cl)c(=O)n(OC)c3n2)cn1C
6. COn1c(=O)c(-c2c(Cl)cccc2Cl)cc2cnc(Nc3cccc(S(C)(=O)=O)c3)nc21

Given back:
["> 6.30", "> 7.00", "> 7.00", "> 6.30", "> 6.30", "> 7.00"]

Asked: Which pIC50 is listed for COn1c(=O)c(-c2c(Cl)cccc2Cl)cc2cnc(Nc3cc(C(=O)O)n(C)c3)nc21 ?
Given back: > 6.30

###

SYSTEM_UNDER_TEST: B-Raf delta1-415 (Homo sapiens, UniProt P15056)
Sequence (P15056 416-766): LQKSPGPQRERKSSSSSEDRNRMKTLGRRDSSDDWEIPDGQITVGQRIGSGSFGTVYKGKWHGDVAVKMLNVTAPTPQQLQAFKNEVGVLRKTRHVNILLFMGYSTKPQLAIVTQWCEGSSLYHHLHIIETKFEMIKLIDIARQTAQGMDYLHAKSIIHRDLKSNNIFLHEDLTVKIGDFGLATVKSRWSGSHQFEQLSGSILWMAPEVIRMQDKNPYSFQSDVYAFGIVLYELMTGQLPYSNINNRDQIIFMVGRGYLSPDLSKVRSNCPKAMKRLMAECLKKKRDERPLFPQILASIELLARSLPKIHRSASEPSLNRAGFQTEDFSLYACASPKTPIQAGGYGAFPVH
PROTOCOL_DESCRIPTION: B-Raf kinase inhibition (MAPH filter plate, 33P-ATP, MEK1 substrate)
MEASUREMENT_SETUP: read-out: Biochemical IC50 B-Raf
Exercise: for every item that follows, state its recorded IC50.

Examples with answers:
MOLECULE | IC50
COn1c(=O)c(-c2c(Cl)cccc2Cl)cc2cnc(Nc3ccc(Cn4cncn4)cc3)nc21 [Compound 104] | < 500 nM
COn1c(=O)c(-c2c(Cl)cccc2Cl)cc2cnc(Nc3ccc(CN4CCC(F)(F)C4)cc3)nc21 [Compound 196] | < 500 nM
COn1c(=O)c(-c2c(Cl)cccc2Cl)cc2cnc(Nc3ccon3)nc21 [Compound 85] | < 500 nM
CCNS(=O)(=O)c1cccc(Nc2ncc3cc(-c4c(Cl)cccc4Cl)c(=O)n(OC)c3n2)c1 [Compound 122] | < 500 nM
O=c1c(-c2c(Cl)cccc2Cl)cc2cnc(Nc3ccc(N4CCNCC4)cc3)nc2n1OCC1CCOCC1 [Compound 202] | < 500 nM

Parameters: items (list). Returns: IC50 for each item.
1. COn1c(=O)c(-c2c(Cl)cccc2Cl)cc2cnc(Nc3ccc(Br)cc3)nc21 [Compound 191]
2. O=c1c(-c2c(F)cccc2Cl)cc2cnc(Nc3ccc(N4CCOCC4)cc3)nc2n1OC[C@H]1CCNC1 [Compound 155]

Given back:
> 1000 nM
< 100 nM

Parameters: items (list). Returns: IC50 for each item.
1. COn1c(=O)c(-c2c(F)cccc2Cl)cc2cnc(Nc3ccc(N4CCNCC4)cc3)nc21 [Compound 198]
2. COCCN(C)C(=O)c1cc(Nc2ncc3cc(-c4c(F)cccc4Cl)c(=O)n(OC)c3n2)cn1C [Compound 194]

Given back:
1. < 100 nM
2. < 100 nM

Parameters: items (list). Returns: IC50 for each item.
1. O=c1c(-c2c(F)cccc2Cl)cc2cnc(Nc3ccc(N4CCOCC4)cc3)nc2n1OC[C@@H]1CCNC1 [Compound 149]
2. COn1c(=O)c(-c2c(Cl)cccc2Cl)cc2cnc(Nc3cc(C(=O)N(C)CCOC(=O)C(C)(C)C)n(C)c3)nc21 [Compound 140]

Given back:
< 100 nM
< 500 nM
